Taken from ChEMBL document CHEMBL5096208.

- Target Under Test: Histone deacetylase 2 (Homo sapiens)
- Sequence (Q92769 whole entry, the tested form may be a part): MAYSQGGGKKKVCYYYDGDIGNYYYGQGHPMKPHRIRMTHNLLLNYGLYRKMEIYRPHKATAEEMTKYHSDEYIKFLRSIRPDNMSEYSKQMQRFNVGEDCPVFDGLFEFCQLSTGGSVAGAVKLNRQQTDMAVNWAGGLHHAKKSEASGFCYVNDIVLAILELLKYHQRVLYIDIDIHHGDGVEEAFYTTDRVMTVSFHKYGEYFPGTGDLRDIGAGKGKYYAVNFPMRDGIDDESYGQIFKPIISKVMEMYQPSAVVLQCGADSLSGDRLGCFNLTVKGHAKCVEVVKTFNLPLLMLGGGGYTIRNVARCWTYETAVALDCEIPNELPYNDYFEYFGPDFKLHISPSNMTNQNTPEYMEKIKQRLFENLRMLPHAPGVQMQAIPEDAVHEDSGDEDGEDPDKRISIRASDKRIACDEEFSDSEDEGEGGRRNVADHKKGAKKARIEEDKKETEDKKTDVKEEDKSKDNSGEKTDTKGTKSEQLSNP
- Experimental Protocol: Inhibition of human HDAC2 (379 to 382 residues) using RHKKAc as flurogenic substrate
Measured Quantity: IC50 (µM)
Answer in µM, number only, no unit symbol.

Respond only with IC50 recorded for "C#CCN(C)Cc1cccc(NC(=O)CCCCCCC(=O)NO)c1"
1.54

====

- Target Under Test: Amine oxidase [flavin-containing] B (Homo sapiens)
- Sequence (P27338 whole entry): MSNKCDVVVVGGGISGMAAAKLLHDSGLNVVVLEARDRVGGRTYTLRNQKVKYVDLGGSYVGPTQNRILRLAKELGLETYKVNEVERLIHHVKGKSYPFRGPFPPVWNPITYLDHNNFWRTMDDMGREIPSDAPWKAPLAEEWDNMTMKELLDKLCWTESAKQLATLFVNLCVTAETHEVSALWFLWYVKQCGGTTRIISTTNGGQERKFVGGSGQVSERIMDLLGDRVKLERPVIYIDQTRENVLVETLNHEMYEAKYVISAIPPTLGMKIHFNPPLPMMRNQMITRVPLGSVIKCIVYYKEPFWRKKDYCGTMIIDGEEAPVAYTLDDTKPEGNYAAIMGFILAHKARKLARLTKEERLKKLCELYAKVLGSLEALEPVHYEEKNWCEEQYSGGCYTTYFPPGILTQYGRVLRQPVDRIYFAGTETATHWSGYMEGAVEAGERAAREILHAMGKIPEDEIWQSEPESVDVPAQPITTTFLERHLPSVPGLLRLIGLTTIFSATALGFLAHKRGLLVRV
- Experimental Protocol: Inhibition of human full length recombinant MAO-B expressed in insect cells using kynuramine as substrate
Measured Quantity: pIC50
Worth noting: pIC50 values are minus log10 of concentrations stated in mol/L.

Respond only with pIC50 recorded for "C#CCN(C)Cc1cccc(NC(=O)CCCCCCC(=O)NO)c1"
4.17

====

- Experimental Protocol: Metabolic stability in Sprague-Dawley rat hepatocyte assessed as parent compound remaining at 10 uM incubated for 120 mins by LC-MS/MS analysis
- Assay type: ADME, cell-based
- Test Settings: hepatocytes, read-out: Stability
Measured Quantity: remaining at 2 h, 10 µM (%)
Answer in %, number only, no unit symbol.

Respond only with remaining at 2 h, 10 µM recorded for "C#CCN(C)Cc1cccc(NC(=O)CCCCCCC(=O)NO)c1"
35.9

====

- Experimental Protocol: Metabolic stability in human hepatocyte assessed as parent compound remaining at 10 uM incubated for 120 mins by LC-MS/MS analysis
- Format: ADME, cell-based
- Test Settings: hepatocytes, read-out: Stability
Measured Quantity: remaining at 2 h, 10 µM

Respond only with remaining at 2 h, 10 µM recorded for "C#CCN(C)Cc1cccc(NC(=O)CCCCCCC(=O)NO)c1"
95.5%

====

- Experimental Protocol: Oral bioavailability in Sprague-Dawley rat at 25 mg/kg administered once via gavage measured upto 24 hrs post dose by UPLC-MS/MS analysis
- Format: ADME, organism-based
- Test Settings: in vivo
Measured Quantity: bioavailability (%)
Answer in %, number only, no unit symbol.

Respond only with bioavailability recorded for "C#CCN(C)Cc1cccc(NC(=O)CCCCCCC(=O)NO)c1"
11.8

====

- Experimental Protocol: Half life in Sprague-Dawley rat at 25 mg/kg, po formulated using SMEDDS administered once via gavage measured upto 24 hrs post dose by UPLC-MS/MS analysis
- Type: ADME, organism-based
- Test Settings: in vivo
Measured Quantity: half-life (h)
Answer in h, number only, no unit symbol.

Respond only with half-life recorded for "C#CCN(C)Cc1cccc(NC(=O)CCCCCCC(=O)NO)c1"
4.3

====

- Experimental Protocol: C0 in Sprague-Dawley rat at 2 mg/kg, iv administered as single dose through tail vein measured upto 24 hrs post dose by UPLC-MS/MS analysis
- Assay type: ADME, organism-based
- Test Settings: in vivo
Measured Quantity: C0 at 24 h (ng/mL)
Answer in ng/mL, number only, no unit symbol.

Respond only with C0 at 24 h recorded for "C#CCN(C)Cc1cccc(NC(=O)CCCCCCC(=O)NO)c1"
38.1

====

- Experimental Protocol: Metabolic stability in human hepatocyte assessed as parent compound remaining at 10 uM incubated for 30 mins by LC-MS/MS analysis
- Assay type: ADME, cell-based
- Test Settings: hepatocytes, read-out: Stability
Measured Quantity: remaining at 0.5 h, 10 µM (%)
Answer in %, number only, no unit symbol.

Respond only with remaining at 0.5 h, 10 µM recorded for "C#CCN(C)Cc1cccc(NC(=O)CCCCCCC(=O)NO)c1"
103
